The entries below come with measured αi^ex values attached.
Assay: Additive decomposition of peak excitation and emission wavelengths (model coefficients of A and B groups)
Conditions: influence of A group on peak excitation wavelength, A group 1 as baseline
Excerpt: The chemical structure of the styryl library is illustrated in FIG. 3. […] The additive model λij=ai+βj+εij was fit to the data using least squares yielding parameters αi^ex, αi^em, βj^ex, and βj^em that quantify the influence of each A and B group on the spectrum of the styryl product. […] Based on this analysis, the contribution of the A and B functional groups to the fluorescence of the styryl product is quantified using the fitted coefficients αi^ex, βj^ex, βi^em, and βj^em. […]
The answer is to be given in nm; state only the numeric part.

Consider the following illustrative entries.
Item `O=Cc1ccc(F)cc1` has what recorded αi^ex? 7.4

Item `O=Cc1ccc2c(c1)Cc1ccccc1-2` has what recorded αi^ex? 2.4

Item `O=Cc1c[nH]c2ccccc12` has what recorded αi^ex? −7.2

Item `O=CC=Cc1ccccc1[N+](=O)[O-]` has what recorded αi^ex? −25.3

Item `COc1ccc(C=O)cc1` has what recorded αi^ex? 8.1

---
Item `COc1ccc(C=O)cc1O` has what recorded αi^ex? −46.9

Item `O=Cc1cccc([N+](=O)[O-])c1` has what recorded αi^ex? −68.0

Item `COc1ccc2ccccc2c1C=O` has what recorded αi^ex? 6.1

Item `Cc1ccccc1C=O` has what recorded αi^ex? −44.1

Item `CN(C)c1ccc(C=O)cc1` has what recorded αi^ex? 26.0

Item `COc1cc(OC)c(OC)cc1C=O` has what recorded αi^ex? −15.6

Item `O=CC=Cc1ccccc1` has what recorded αi^ex? 0.0

Item `O=Cc1ccc(Br)cc1` has what recorded αi^ex? −32.3

Item `O=Cc1cccc(Br)c1` has what recorded αi^ex? −34.0
